FYI, the data here is from patent US20050282743A1.

# system: PDZ protein (GST-PDZ fusion) (Homo sapiens, UniProt P55196)
# Construct: made in house; host or cells: E. coli (DH5alpha, BL21 or JM109)
# Sequence (P55196 whole entry, the tested form may be a part): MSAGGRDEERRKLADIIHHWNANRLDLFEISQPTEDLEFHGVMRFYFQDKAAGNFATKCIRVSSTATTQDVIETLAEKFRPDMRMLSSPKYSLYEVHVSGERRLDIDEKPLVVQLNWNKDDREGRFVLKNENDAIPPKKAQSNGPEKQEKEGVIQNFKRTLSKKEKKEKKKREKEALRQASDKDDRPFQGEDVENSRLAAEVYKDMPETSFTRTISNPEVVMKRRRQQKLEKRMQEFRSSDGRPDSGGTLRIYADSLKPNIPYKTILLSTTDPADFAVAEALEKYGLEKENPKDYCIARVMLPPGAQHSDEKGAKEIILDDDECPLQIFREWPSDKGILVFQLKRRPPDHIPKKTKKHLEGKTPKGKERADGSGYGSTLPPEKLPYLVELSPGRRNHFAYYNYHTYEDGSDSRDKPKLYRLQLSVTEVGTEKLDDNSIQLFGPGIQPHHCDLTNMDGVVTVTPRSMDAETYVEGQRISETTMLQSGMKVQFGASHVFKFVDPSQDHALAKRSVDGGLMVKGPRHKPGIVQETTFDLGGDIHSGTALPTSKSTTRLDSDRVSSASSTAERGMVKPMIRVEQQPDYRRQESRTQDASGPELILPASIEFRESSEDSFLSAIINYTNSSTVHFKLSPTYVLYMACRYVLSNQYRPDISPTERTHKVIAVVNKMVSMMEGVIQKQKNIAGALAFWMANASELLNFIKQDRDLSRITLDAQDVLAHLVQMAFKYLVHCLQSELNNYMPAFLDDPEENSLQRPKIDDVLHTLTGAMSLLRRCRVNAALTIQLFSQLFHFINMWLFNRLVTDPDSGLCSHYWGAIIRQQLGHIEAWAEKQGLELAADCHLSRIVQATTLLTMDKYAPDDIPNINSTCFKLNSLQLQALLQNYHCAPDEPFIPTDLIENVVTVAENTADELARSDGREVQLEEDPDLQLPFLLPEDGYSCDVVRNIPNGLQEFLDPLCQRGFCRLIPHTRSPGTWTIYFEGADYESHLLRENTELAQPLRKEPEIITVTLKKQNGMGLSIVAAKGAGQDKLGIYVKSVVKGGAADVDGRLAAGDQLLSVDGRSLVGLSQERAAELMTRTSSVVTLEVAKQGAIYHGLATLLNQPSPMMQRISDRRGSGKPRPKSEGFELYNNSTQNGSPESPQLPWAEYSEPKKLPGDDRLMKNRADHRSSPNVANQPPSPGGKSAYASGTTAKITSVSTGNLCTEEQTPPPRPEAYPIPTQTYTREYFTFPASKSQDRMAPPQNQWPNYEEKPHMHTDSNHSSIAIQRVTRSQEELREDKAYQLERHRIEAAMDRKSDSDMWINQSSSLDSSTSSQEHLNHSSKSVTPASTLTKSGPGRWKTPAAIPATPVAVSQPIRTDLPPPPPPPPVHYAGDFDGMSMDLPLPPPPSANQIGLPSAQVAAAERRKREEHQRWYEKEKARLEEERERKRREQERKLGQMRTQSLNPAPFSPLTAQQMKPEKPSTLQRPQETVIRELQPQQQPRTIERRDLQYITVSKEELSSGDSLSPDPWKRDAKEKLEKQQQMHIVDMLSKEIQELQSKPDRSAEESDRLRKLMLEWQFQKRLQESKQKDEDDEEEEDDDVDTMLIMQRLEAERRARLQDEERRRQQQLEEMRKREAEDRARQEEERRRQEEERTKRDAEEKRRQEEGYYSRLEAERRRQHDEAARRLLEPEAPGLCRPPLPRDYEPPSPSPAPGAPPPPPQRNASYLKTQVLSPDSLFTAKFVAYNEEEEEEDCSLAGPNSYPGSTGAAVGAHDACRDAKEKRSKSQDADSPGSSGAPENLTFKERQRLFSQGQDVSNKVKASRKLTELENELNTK
# experiment.notes: G' assay (10 uM PL peptide), results of TABLE 7 and TABLE 12
# Type: binding
# test.context: PDZ AF6, PDZ Domain 1
Ends that are not written are not given here. * marks the point of attachment. Biotin = O=C1N[C@H]2[C@H](CS[C@H]2CCCCC(=O)*)N1
sequences and their reported Classification

{"item.sequence": "YSQPSARSEGEFKQTSSFLV (Biotin-YSQPSARSEGEFKQTSSFLV) [JAM (junctional adhesion molecule)]", "Classification": "1 (A450 nm 0-1)"}
{"item.sequence": "YSATYSELEDPGEMSPPIDL (Biotin-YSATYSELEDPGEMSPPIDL) [FceRlb]", "Classification": "2 (A450 nm 1-2)"}
{"item.sequence": "GPVPGEPAKPKTSAHHATFV (Biotin-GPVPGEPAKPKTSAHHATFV)", "Classification": "1 (A450 nm 0-1)"}
{"item.sequence": "KTMPAATYRLLTGQEQPVYL (Biotin-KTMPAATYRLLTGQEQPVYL) [MINT-3]", "Classification": "1 (A450 nm 0-1)"}
{"item.sequence": "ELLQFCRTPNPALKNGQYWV (Biotin-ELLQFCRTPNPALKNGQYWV)", "Classification": "5 (A450 nm of 4 more than 2× repeated)"}
{"item.sequence": "SSPDSSYQGKGFVMSRAMYV (Biotin-SSPDSSYQGKGFVMSRAMYV) [Nectin 2]", "Classification": "2 (A450 nm 1-2)"}
